Values compiled from patent US9562035B2.

hFASN enzyme (full length) (Homo sapiens): recorded IC50 for assorted molecules
Sequence (P49327 whole entry): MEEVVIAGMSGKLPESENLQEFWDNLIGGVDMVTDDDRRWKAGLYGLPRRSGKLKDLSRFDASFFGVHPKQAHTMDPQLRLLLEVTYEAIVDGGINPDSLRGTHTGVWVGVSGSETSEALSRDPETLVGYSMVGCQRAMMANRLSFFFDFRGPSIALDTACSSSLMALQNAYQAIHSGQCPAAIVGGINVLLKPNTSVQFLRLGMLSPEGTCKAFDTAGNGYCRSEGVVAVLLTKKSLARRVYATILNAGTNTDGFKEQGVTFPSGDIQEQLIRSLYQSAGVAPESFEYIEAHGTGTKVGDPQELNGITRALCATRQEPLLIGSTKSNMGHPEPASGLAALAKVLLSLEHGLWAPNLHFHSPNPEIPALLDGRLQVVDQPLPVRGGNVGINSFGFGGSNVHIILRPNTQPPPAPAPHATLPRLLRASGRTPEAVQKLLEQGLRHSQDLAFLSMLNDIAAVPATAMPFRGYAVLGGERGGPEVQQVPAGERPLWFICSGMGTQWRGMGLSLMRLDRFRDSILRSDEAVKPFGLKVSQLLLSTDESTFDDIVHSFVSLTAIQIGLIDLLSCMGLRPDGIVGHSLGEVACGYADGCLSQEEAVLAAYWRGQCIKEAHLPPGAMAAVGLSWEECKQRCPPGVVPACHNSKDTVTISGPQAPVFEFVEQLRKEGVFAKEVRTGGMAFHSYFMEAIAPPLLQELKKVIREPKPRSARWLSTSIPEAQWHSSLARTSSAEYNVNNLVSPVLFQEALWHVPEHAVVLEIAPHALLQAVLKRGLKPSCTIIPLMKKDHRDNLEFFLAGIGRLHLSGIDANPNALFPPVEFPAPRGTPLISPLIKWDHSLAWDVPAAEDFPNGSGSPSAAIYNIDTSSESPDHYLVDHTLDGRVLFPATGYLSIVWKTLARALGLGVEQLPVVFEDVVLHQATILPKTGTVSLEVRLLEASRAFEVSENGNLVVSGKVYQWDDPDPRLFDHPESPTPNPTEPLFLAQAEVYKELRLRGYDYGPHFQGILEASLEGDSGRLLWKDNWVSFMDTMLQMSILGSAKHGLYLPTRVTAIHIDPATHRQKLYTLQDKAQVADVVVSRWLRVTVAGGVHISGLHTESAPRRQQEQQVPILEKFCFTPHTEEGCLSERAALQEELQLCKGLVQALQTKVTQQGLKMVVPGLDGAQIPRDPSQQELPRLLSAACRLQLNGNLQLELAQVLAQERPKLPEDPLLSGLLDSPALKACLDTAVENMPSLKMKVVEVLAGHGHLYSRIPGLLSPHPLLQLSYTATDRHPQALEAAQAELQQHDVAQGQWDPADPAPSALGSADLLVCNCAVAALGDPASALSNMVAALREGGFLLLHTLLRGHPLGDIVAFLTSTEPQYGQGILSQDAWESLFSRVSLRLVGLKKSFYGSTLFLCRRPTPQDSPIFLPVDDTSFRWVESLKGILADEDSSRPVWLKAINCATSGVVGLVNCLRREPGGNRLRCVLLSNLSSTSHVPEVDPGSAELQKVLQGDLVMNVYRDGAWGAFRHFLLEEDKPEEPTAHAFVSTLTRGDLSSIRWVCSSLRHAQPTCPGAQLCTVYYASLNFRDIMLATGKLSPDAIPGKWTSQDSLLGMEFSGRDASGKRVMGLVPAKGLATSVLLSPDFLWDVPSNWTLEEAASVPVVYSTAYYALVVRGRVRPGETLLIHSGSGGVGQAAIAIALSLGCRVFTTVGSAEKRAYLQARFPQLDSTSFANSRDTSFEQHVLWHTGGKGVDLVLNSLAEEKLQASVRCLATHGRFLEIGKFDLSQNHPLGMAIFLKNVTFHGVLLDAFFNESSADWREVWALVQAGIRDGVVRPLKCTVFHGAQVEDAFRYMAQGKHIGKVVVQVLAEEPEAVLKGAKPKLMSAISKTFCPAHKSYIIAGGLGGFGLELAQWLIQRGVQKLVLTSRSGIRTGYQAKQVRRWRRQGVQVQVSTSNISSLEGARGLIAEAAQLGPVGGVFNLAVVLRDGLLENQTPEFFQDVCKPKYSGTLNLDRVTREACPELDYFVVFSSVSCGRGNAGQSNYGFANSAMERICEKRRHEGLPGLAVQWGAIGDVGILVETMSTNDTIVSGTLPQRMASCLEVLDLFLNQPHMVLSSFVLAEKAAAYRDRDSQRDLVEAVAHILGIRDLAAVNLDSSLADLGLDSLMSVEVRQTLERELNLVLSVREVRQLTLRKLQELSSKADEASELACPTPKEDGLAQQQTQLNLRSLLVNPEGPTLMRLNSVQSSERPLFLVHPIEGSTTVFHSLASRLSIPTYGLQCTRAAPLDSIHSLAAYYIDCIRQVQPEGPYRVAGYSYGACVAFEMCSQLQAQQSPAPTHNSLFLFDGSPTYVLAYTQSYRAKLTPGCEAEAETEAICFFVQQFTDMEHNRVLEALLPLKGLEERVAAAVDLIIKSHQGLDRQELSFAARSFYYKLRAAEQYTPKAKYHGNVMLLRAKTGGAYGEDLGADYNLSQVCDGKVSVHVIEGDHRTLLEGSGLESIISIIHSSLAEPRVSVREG
Assay endpoint: IC50 (nM)

For orientation, consider the following solved cases.
Cc1ccc(C(=O)N2CC(c3ccc(-c4ccncc4N)cc3)C2)cc1NC(=O)c1ccc(N2CCOCC2)nc1 [Compound 265] :: 21.9
Cc1ccc(C(=O)N2CCC(c3ccc(-c4cnn(C)c4)cc3)CC2)cc1NC(=O)c1ccc(Cl)cc1Cl [Compound 122] :: 18.6
Cc1ccc(C(=O)N2CCC(c3ccc(-c4cnn(CCO)c4)cc3)CC2)cc1NC(=O)c1ccc(NC(C)C)nc1 [Compound 267] :: 25.7
Cc1ccc(C(=O)N2CCC(c3ccc(-c4cnn(C)c4)cc3)CC2)cc1NC(=O)c1ccc(C(C)C)cc1 [Compound 148] :: 47.9
Cc1ccc(C(=O)N2CC(c3ccc(-c4cnn(C)c4)cc3)C2)cc1NC(=O)c1ccccn1 [Compound 80] :: 51.3

(1) Cc1ccc(C(=O)N2CCC(c3ccc(-c4cnn(C)c4)cc3)CC2)cc1NC(=O)c1ccc(F)c(F)c1F [Compound 120]
(2) Cc1ccc(C(=O)N2CCC(c3ccc(-c4cnn(C)c4)cc3)CC2)cc1NC(=O)C1CCN(Cc2ccccc2)CC1 [Compound 124]
(3) Cc1ccc(C(=O)N2CCC(c3ccc(-c4cnn(CCN(C)C)c4)cc3)CC2)cc1NC(=O)c1ccc(NC(C)C)nc1 [Compound 253]
(4) Cc1ccc(C(=O)N2CCC(c3ccc(-c4cnn(C)c4)cc3)CC2)cc1NC(=O)c1ccc(N(C)C)cn1 [Compound 119]
Input: Reorder: IC50, max to min. In plain terms: list the labels in the order you were asked to.
Output: 3, 4, 1, 2
(3: 316 nM, 4: 64.6 nM, 1: 44.7 nM, 2: 25.7 nM)
